As shown below, each of these sequences has a reported percent viability value.
test system: MCF10A; assay: percent viability (nuclei count relative to siNT); higher = more viable cells; settings: 20 nM; 72 h
# unit: % | format: bare number

Here's what some known entries look like.
[[record]]
seqtext = "ACUGUAAACGCUUUCUGAUG [hsa-miR-3607-3p]"
systemundertest = "MCF10A"
unitname = "%"
measuredresult = 124

[[record]]
seqtext = "UCGUGGCCUGGUCUCCAUUAU [hsa-miR-1204]"
systemundertest = "MCF10A"
unitname = "%"
measuredresult = 48.3

[[record]]
seqtext = "GGGAGAAGGGUCGGGGC [hsa-miR-4516]"
systemundertest = "MCF10A"
unitname = "%"
measuredresult = 94.1


What value of percent viability has been reported for the following sequence? AGCGGUGCUCCUGCGGGCCGA [hsa-miR-4746-3p]
34.7

AAAAGUAAUUGUGGUUUUGGCC [hsa-miR-548b-5p] , same question.
131

UCCUGUCUUUCCUUGUUGGAGC [hsa-miR-5699] , same question.
186
